# assay: Evaluation of solubility in organic solvent
# Assay type: physicochemical
# stated-conditions: toluene/2-propanol mixed solvent
experimental-endpoint: solubility in organic solvents (in words)

C=CC(=O)OCCOC(=O)CCC(=O)OCC(CC(C)C)N1C(=O)c2ccc3c4ccc5c6c(ccc(c7ccc(c2c37)C1=O)c64)C(=O)N(C(COC(=O)CCC(=O)OCCOC(=O)C=C)CC(C)C)C5=O (stereo not shown) [Comparative Compound 3] :: poor solubility
CCCCCCC(CCCCCC)N1C(=O)c2ccc3c4ccc5c6c(ccc(c7ccc(c2c37)C1=O)c64)C(=O)N(C(CCCCCC)CCCCCC)C5=O [Comparative Compound 2] :: poor solubility

The values you see were collected from patent US20250320211A1.
